biological target: 5-HT2B receptor (Homo sapiens, UniProt P41595); construct: host or cells: unnamed cell lines; experiment: Calcium mobilization assay, agonist format, 5-HT2B receptor; format: cell-based; details: read-out: 5-HT2B agonist Efficacy @ 5 µM
Sequence (P41595 whole entry): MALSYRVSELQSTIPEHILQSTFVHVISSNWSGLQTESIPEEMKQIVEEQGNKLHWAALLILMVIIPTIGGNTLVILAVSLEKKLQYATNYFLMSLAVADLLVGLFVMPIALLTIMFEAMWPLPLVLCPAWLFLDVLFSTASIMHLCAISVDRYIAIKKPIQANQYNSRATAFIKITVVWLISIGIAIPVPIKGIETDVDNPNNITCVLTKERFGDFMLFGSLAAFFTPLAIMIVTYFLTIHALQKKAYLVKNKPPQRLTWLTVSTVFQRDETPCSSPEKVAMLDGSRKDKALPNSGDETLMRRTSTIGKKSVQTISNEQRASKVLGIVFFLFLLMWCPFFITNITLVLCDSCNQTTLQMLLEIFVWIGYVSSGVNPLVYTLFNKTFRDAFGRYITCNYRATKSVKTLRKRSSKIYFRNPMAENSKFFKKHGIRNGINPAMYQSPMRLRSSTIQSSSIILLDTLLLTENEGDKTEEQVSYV
property label: activation at 5 µM (%)
Give bare numbers, in %.

molecule	unit spec	activation at 5 µM
[2H]C([2H])([2H])Oc1ccc2c3c([nH]c2c1)CCN(C([2H])([2H])[2H])CC3	%	-0.7

# return activation at 5 µM for each item in the list
1. CN1CCc2[nH]c3c4c(ccc3c2CC1)OCC4
2. CN1CCc2[nH]c3cc(C#N)ccc3c2CC1
3. c1cc2c3c([nH]c2cc1OC1CC1)CCN(C1CC1)CC3
4. COc1ccc2c3c([nH]c2c1)CCNCC3 [reference compound]
5. COc1ccc2c3c([nH]c2c1)CCN(C1CC1)CC3
6. [2H]C([2H])([2H])Oc1ccc2c3c([nH]c2c1)CCN(C1CC1)CC3
7. [2H]C([2H])([2H])Oc1ccc2c3c([nH]c2c1)CCN(C)CC3

Result:
-0.7
-1
0.9
0.6
2.7
9
-8.3

Record activation at 5 µM for all entries; do not skip any.
1. COc1ccc2c3c([nH]c2c1)CCN(C)CC3 [TBG, reference compound]
2. [2H]C([2H])([2H])N1CCc2[nH]c3cc(OC4CC4)ccc3c2CC1
3. CN1CCc2[nH]c3cccc(C#N)c3c2CC1

Result:
1. -0.9
2. 1.5
3. -0.4
